molecular target: gH/gL of HCMV strain TB40/E (on virus) (human cytomegalovirus (strain TB40/E)); assay: cell-based or functional assay
As shown below, each of these binders has a reported IC50(MRC5/NHDF) TB40/E, virus neutralization value.
Record the value in mg/L, omitting the unit from your answer.

Field: example entries. Status: answers known.
14E1 (antibody, V domains shown, also called 14E1 (ms)) VH: QVQLVQSGAEVKKPGASVKVSCKASGYTFTSYSISWVRQAPGQGLEWMGWINTYNGNTNYAQRVQARVTMTTDTSTSTAYMELRSLRSDDTAVYYCARDHGFFFDYWGQGNLVTVSS VL: DIQLTQSPSFLSASVGDRVTITCWASQGISSYLAWYQQKPGKAPKLLIYAASTLQSGVPSRFSGSGSGTEFTLTISSLQPEDFATYYCQQLNSYPYTFGQGTQLEIK ... 0.89
13G1 (antibody, V domains shown, also called 13G1 (ms); anti-gH mAb 13G1) VH: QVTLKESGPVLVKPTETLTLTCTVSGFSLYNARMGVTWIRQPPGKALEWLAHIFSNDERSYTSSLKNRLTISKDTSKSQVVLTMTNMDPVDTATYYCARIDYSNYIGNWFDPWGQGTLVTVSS VL: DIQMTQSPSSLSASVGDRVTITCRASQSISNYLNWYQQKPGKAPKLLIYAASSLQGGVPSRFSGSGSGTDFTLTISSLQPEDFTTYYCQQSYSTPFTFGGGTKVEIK ... 0.89
9A12 (antibody, V domains shown, also called 9A12 (ms); anti-gH mAb 9A12) VH: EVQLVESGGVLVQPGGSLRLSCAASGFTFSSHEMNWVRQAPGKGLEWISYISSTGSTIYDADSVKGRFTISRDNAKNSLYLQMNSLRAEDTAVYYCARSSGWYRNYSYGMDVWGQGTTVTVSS VL: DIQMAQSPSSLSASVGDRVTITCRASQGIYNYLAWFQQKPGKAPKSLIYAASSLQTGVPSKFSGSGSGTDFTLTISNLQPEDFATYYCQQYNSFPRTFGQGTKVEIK ... 1.09

What does the data say about its IC50(MRC5/NHDF) TB40/E, virus neutralization? Entry: 15G11 (antibody, V domains shown, also called 15G11 (ms); anti-gH mAb 15G11) VH: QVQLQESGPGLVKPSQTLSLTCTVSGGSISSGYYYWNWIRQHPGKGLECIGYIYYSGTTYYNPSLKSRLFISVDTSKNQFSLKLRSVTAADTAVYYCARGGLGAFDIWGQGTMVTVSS VL: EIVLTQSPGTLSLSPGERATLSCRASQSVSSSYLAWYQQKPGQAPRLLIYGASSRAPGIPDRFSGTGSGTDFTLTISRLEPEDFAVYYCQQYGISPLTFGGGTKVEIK
0.5
